# TARGET_UNDER_TEST: human ROR1 (Homo sapiens, UniProt Q01973)
# Construct: host or cells: HEK 293T cells, Tet-on system induced with doxycycline
# Sequence (Q01973 30-937): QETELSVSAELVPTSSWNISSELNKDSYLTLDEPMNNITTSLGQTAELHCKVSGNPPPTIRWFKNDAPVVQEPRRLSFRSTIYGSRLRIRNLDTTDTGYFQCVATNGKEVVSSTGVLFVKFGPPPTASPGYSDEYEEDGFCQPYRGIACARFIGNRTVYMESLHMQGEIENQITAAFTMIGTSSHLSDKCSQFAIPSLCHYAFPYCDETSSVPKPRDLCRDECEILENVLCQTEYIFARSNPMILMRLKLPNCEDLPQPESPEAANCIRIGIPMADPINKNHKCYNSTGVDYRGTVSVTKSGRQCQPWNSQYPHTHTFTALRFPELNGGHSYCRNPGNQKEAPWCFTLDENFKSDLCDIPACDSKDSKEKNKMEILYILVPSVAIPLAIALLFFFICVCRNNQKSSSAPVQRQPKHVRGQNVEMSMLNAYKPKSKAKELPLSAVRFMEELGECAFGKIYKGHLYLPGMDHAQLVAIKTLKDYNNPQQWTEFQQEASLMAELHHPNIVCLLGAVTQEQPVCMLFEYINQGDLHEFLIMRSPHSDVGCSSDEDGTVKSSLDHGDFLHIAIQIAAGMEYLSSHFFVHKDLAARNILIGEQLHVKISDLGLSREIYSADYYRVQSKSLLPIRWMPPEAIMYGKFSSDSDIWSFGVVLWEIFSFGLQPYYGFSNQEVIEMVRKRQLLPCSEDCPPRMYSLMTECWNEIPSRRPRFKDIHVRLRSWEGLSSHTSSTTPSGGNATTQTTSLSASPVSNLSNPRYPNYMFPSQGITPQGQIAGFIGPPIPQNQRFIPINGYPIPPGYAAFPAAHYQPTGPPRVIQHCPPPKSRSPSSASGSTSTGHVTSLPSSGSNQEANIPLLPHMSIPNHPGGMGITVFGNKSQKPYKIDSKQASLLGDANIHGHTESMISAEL
# PROTOCOL_DESCRIPTION: ROR1 high content cell-based binding assay
# ASSAY_SETUP: read-out: ROR1 Binding 293T Human HC Cell Based Assay IC50
Positions of bridges follow the written chain, without caps; N, C: chain ends. Non-standard residues stand in square brackets, D forms with d. Residues, ends and D or L forms follow the SMILES beside them. NMeF = CN[C@@H](Cc1ccccc1)C(=O)O
Reported IC50 values are given for each entry in this list.

{"MOLECULE": "CC(C)C[C@@H]1NC(=O)[C@H](Cc2ccc(O)cc2)NC(=O)[C@H](Cc2ccccc2)NC(=O)CSC[C@@H](C(=O)NCC(N)=O)NC(=O)[C@H](CC(C)C)NC(=O)[C@H](Cc2ccccc2)N(C)C(=O)[C@H](Cc2ccc(O)cc2)NC(=O)[C@H](Cc2c[nH]c3ccccc23)NC(=O)CNC(=O)[C@H](CC(N)=O)NC(=O)[C@H](Cc2ccc(O)cc2)NC(=O)[C@H](C(C)C)NC1=O [Example 1021] ({CH2CO}-FYLVYNGWY[NMeF]LCG-NH2; thioether N-12)", "IC50": "5 nM"}
{"MOLECULE": "CC(C)C[C@@H]1NC(=O)[C@H](Cc2ccc(O)cc2)NC(=O)[C@H](Cc2ccccc2)NC(=O)CSC[C@@H](C(=O)NCC(N)=O)NC(=O)[C@H](CC(C)C)NC(=O)[C@H](Cc2ccccc2)N(C)C(=O)[C@H](Cc2ccc(O)cc2)NC(=O)[C@H](Cc2c[nH]c3ccccc23)NC(=O)CNC(=O)[C@H](CCCNC(=N)N)NC(=O)[C@H](Cc2ccc(O)cc2)NC(=O)[C@H](C(C)C)NC1=O [Example 1018] ({CH2CO}-FYLVYRGWY[NMeF]LCG-NH2; thioether N-12)", "IC50": "30 nM"}
